# SYSTEM_UNDER_TEST: human PRMT4 enzyme (Homo sapiens, UniProt Q86X55)
# Sequence (Q86X55 whole entry): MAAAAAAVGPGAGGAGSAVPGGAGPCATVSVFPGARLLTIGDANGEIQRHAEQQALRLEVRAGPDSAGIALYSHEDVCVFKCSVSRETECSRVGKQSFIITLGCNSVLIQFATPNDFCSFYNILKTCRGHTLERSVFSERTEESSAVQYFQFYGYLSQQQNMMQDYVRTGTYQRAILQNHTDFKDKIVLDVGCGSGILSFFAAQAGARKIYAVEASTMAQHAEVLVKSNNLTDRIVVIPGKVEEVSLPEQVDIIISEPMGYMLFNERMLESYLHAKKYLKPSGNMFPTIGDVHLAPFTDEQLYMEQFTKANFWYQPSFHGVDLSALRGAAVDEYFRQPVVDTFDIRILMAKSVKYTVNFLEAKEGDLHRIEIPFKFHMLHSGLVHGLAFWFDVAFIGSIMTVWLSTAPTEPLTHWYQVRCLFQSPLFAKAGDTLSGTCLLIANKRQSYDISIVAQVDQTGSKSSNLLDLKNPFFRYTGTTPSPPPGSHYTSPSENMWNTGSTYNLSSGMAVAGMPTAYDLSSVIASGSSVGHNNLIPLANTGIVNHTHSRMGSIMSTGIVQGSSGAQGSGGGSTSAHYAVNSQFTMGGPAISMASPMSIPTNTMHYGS
pIC50: −log10 of the molar value.

{"COMPOUND": "COCn1cc(CN(CCC(N)C(=O)O)CCC2OC(n3cnc4c(N)ncnc43)C(O)C2O)c(N)nc1=O (stereo not shown)", "pIC50": 4.85}

The measurements presented in this section are drawn from patent EP3266784A1.
